All figures here come from the RNAGym collection of RNA variant scans (doi:10.1021/acssynbio.7b00057).

B1: Pistol ribozyme (parent)
chain: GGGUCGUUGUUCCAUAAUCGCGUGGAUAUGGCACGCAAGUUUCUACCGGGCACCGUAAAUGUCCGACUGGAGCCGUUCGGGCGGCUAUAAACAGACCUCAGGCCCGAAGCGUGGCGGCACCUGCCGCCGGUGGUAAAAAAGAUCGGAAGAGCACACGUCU

Variants of: B1
Assay: aptazyme ON/OFF ratio, guanine; higher = stronger switching; co-transcriptional cleavage with and without guanine
measurement-type: aptazyme ON/OFF ratio
Lab note: jot the number down without any unit.

variant-code | val
U7G U8A G9C U10A U11A C12A C13U | 1.02

// field: aptazyme ON/OFF ratio; key: U7A U8A G9C U10A C13A ; value = 1.21

// field: aptazyme ON/OFF ratio; key: U7C U8A G9U U10A U11G C12A C13A ; value = 1.09
